Tested on: Staphylococcus aureus
Assay: Antibacterial activity against Staphylococcus aureus KCTC 503 after 24 hrs by two-fold serial dilution method
Type: functional
Details: KCTC 503, 24 h
# note: exactly 8 µg/mL is not below, so it is condition not met; use condition met for MIC strictly under it

Take the compound `O=C(COc1ccc(/C=C2\SC(=S)N([C@@H](Cc3ccc(O)cc3)C(=O)O)C2=O)cc1)c1ccccc1Br` and say whether its MIC is less than 8 µg/mL.
condition not met

Try `O=C(COc1ccc(/C=C2\SC(=S)N([C@@H](Cc3ccc(O)cc3)C(=O)O)C2=O)cc1)c1ccc(Br)cc1` next.
condition met

Please give the result for `O=C(COc1ccc(/C=C2\SC(=S)N([C@@H](Cc3ccc(O)cc3)C(=O)O)C2=O)cc1)c1ccccc1` too.
condition not met

Same question for `O=C(COc1ccc(/C=C2\SC(=S)N([C@@H](Cc3ccccc3)C(=O)O)C2=O)cc1)c1cccc(Cl)c1` please.
condition met

Also CCn1cc(C(=O)O)c(=O)c2cc(F)c(N3CCNCC3)cc21 [NORFLOXACIN] , if possible.
condition met

Note, next up: `O=C(O)CN1C(=O)C(=Cc2ccc(/C=C/C(=O)c3ccc(Cl)cc3Cl)cc2)SC1=S`
condition met

Let us now turn to `O=C(COc1ccc(/C=C2\SC(=S)N([C@@H](Cc3ccccc3)C(=O)O)C2=O)cc1)c1cccc(Br)c1`
condition met

Now the same for `O=C(COc1ccc(/C=C2\SC(=S)N([C@@H](Cc3ccc(O)cc3)C(=O)O)C2=O)cc1)c1ccccc1F`
condition not met

Queued: `COc1ccccc1C(=O)COc1ccc(/C=C2\SC(=S)N([C@@H](Cc3ccccc3)C(=O)O)C2=O)cc1`
condition met

Next compound: `O=C(COc1ccc(/C=C2\SC(=S)N([C@@H](Cc3c[nH]c4ccccc34)C(=O)O)C2=O)cc1)c1ccccc1Br`
condition met

Try this compound too: `O=C(COc1ccc(/C=C2\SC(=S)N([C@@H](Cc3ccc(O)cc3)C(=O)O)C2=O)cc1)c1ccc(Cl)cc1Cl`
condition met

// same read-out, input: `O=C(COc1ccc(/C=C2\SC(=S)N([C@@H](Cc3ccccc3)C(=O)O)C2=O)cc1)c1ccc(F)cc1`
condition met

Now the compound `O=C(COc1ccc(/C=C2\SC(=S)N([C@@H](Cc3c[nH]c4ccccc34)C(=O)O)C2=O)cc1)c1ccc(Cl)cc1`
condition met

Then what about the compound `O=C(COc1ccc(/C=C2\SC(=S)N([C@@H](Cc3c[nH]c4ccccc34)C(=O)O)C2=O)cc1)c1cccc(Br)c1` ?
condition met

Further, for `O=C(COc1ccc(/C=C2\SC(=S)N([C@@H](Cc3c[nH]c4ccccc34)C(=O)O)C2=O)cc1)c1ccc(Br)cc1` ?
condition met

----------
Test system: Staphylococcus aureus
Assay: Antibacterial activity against quinolone-resistant Staphylococcus aureus CCARM 3519 after 24 hrs by two-fold serial dilution method
Type: functional
Conditions: CCARM 3519, 24 h
VALUE KIND: MIC (µg/mL)
Enter your answer as a number in µg/mL; do not include the unit.

Any idea what MIC was measured for `O=C(COc1ccc(/C=C2\SC(=S)N([C@@H](Cc3c[nH]c4ccccc34)C(=O)O)C2=O)cc1)c1cccc(Cl)c1` ?
1

Now give it for `O=C(COc1ccc(/C=C2\SC(=S)N([C@@H](Cc3ccc(O)cc3)C(=O)O)C2=O)cc1)c1ccc(Cl)cc1Cl` too.
8

Likewise for `O=C(COc1ccc(/C=C2\SC(=S)N([C@@H](Cc3ccc(O)cc3)C(=O)O)C2=O)cc1)c1ccccc1` ?
32

Source of measurements: ChEMBL document CHEMBL2040848
